Molecular target: Polyamine deacetylase HDAC10 (Homo sapiens, UniProt Q969S8)
Sequence (Q969S8 whole entry): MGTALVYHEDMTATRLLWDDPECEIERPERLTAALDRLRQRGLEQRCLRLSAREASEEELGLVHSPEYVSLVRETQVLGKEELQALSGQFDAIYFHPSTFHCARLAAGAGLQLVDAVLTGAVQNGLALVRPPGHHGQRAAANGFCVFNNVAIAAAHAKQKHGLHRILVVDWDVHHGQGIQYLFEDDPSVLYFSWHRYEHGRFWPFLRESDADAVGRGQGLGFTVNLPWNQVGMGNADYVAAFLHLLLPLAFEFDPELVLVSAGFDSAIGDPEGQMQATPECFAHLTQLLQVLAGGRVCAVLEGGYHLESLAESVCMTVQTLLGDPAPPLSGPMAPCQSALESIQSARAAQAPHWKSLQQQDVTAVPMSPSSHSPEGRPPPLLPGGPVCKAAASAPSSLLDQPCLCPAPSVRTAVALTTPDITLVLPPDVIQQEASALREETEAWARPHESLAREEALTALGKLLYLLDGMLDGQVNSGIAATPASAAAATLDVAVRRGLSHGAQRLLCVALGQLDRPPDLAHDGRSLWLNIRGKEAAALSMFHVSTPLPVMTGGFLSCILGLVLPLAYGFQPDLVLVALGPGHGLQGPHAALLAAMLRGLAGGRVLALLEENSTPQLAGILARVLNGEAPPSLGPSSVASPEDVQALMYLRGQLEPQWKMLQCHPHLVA
pIC50: −log10 of the molar value.
Recorded pIC50 by entry
recordedEndpoint: pIC50

>>> value("O=C(/C=C/c1ccc2c(c1)C(=O)c1ccccc1C2=O)NO")
5.83
>>> value("O=C(NO)c1ccc2c(c1)C(=O)c1ccccc1C2=O")
5.30

# credit: ChEMBL document CHEMBL4422624
